experiment: Plasma concentration in ACTH-stimulated cynomolgus monkey at 0.1 mg/kg, iv administered 5 mins before ACTH challenge measured at 15 mins post dose; format: ADME, organism-based, Macaca fascicularis
measurement_label: concentration at 0.25 h (nM)
Form entry: value (nM) — number only.

Per the record, CN(CCO)C(=O)c1ccc(Cc2onc3c2C(=O)CC(C)(C)C3)cc1 has concentration at 0.25 h of 160

----------
experiment: Clearance in human hepatocytes relative to hepatic blood flow; type: ADME, cell-based, Hepatocyte; settings: read-out: CLH
As shown below, each of these compounds has a reported hepatic extraction ratio value.

Consider the following illustrative entries.
CN1CCN(C(=O)c2ccc(Cc3onc4c3C(=O)CC(C)(C)C4)cc2)CC1=O	0.41
CC1(C)CC(=O)c2c(noc2Cc2ccc(F)cc2)C1	0.91
CC1(C)CC(=O)c2c(noc2Cc2ccc(C(N)=O)cc2)C1	0.33
CC1(C)CC(=O)c2c(noc2Cc2ccc(S(C)(=O)=O)cc2)C1	0.59
CN(CCO)C(=O)c1ccc(Cc2onc3c2C(=O)CC(C)(C)C3)cc1	< 0.21

Please fill in: hepatic extraction ratio reported for CC1(C)CC(=O)c2c(noc2Cc2ccc(C(=O)N3CC[C@@H](O)C3)cc2)C1 = < 0.24

----------
species: Macaca fascicularis; assay: Selectivity index, ratio of IC50 for cynomolgus monkey adrenal mitochondrial CYP11B1 to IC50 for cynomolgus monkey adrenal mitochondrial CYP11B2
measurement_label: Ratio IC50
Form rule: numeric answer, no unit written next to it.

# example entries with known answers
CN1CCN(C(=O)c2ccc(Cc3onc4c3C(=O)CC(C)(C)C4)cc2)CC1=O	64
CC1CC(=O)c2c(noc2Cc2ccccc2)C1 (stereo unspecified)	130
O=C1CCCc2noc(Cc3ccccc3)c21	32
COc1ccc(Cc2onc3c2C(=O)CC(C)(C)C3)cc1	95
CC1(C)CC(=O)c2c(noc2Cc2ccc(C(=O)N3CC[C@@H](O)C3)cc2)C1	160
CC1(C)CC(=O)c2c(noc2Cc2ccc(F)cc2)C1	130
CC1CC(=O)c2c(noc2Cc2ccc(C#N)cc2)C1 (stereo unspecified)	39
CC1(C)CCc2c(noc2Cc2ccc(C#N)cc2)C1	17
CC1(C)CC(=O)c2c(noc2Cc2ccccc2)C1	100
CN(CCO)C(=O)c1ccc(Cc2onc3c2C(=O)CC(C)(C)C3)cc1	100

Item: CN1C(=O)CCc2cc(-c3cccnc3)ccc21 | Ratio IC50: 230

Notebook: CC1(C)CC(=O)c2c(noc2Cc2ccc(C#N)cc2)C1 , Ratio IC50 read as 940

----------
// reported remaining at 0.5 h, 10 µM for each item listed
test: Drug metabolism in human hepatocytes assessed as parent compound remaining at 10 uM after 30 mins by LC-MS/MS analysis; format: ADME, cell-based, Hepatocyte; conditions: read-out: Stability
Could you give me the number in %? Just the number is fine.

Illustrative cases are given below, each with its answer.
CC1(C)CC(=O)c2c(noc2Cc2ccc(C(N)=O)cc2)C1	55
CC1(C)CC(=O)c2c(noc2Cc2ccc(C(=O)N3CC[C@@H](O)C3)cc2)C1	98

Consider now this further compound.
# compound CC1(C)CC(=O)c2c(noc2Cc2ccc(F)cc2)C1 ; its remaining at 0.5 h, 10 µM = 28

----------
target: Aromatase (Homo sapiens); test: Inhibition of CYP19A1 (unknown origin) at 20 uM
Sequence (P11511 whole entry): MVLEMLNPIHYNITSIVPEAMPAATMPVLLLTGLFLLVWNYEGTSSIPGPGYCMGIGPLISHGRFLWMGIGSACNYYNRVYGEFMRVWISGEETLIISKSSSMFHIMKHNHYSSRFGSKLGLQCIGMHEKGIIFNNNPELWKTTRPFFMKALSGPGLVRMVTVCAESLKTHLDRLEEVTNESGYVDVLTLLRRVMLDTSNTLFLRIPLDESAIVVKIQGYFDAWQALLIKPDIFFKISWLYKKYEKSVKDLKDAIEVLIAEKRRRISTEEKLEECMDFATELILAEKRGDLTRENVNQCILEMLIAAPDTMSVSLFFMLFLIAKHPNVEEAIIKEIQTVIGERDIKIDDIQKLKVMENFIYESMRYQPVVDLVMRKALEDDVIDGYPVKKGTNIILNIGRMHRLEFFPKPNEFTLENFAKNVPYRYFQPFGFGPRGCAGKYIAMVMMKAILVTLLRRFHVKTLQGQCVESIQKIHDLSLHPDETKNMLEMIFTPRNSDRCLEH
measurement_label: inhibition (INH)

Examples with answers:
CC1(C)CC(=O)c2c(noc2Cc2ccccc2)C1	Not Active
CC1(C)CC(=O)c2c(noc2Cc2ccc(C(=O)N3CC[C@@H](O)C3)cc2)C1	Not Active
CC1(C)CC(=O)c2c(noc2Cc2ccc(C(N)=O)cc2)C1	Not Active
CN1CCN(C(=O)c2ccc(Cc3onc4c3C(=O)CC(C)(C)C4)cc2)CC1=O	Not Active

Now consider a different molecule.
The observed inhibition (INH) for CN(CCO)C(=O)c1ccc(Cc2onc3c2C(=O)CC(C)(C)C3)cc1 when tested with Aromatase (Homo sapiens) stands at Not Active
